TEST TARGET: HLA B*5101 (Homo sapiens, UniProt P01889, A329T/A93T/A95T/C349S/D138N/D201E/D98Y/E187L/E204Q/E69T/G107R/I218V/K202T/L105A/L119W/N104I/Q94N/R106L/R155S/R180L/S101N/S121T/S35A/S48A/V306I/V36M/Y195H/Y91F)
Assay type: binding
RECORDED ENDPOINT: Normalized average relative binding affinity(ARB)

SEQUENCE CONTENT: XXXXXXDXX [3064.0123]
REPORTED: 0.15
--
SEQUENCE CONTENT: XXXXMXXXX [3064.0091]
REPORTED: 0.45
--
SEQUENCE CONTENT: XXXXXXXYX [3064.0160]
REPORTED: 0.67
--
SEQUENCE CONTENT: XXXXXXCXX [3064.0122]
REPORTED: 0.28

* * *

TEST TARGET: HLA B*1501 (Homo sapiens, UniProt P01889, A329T/A93T/A95T/C349S/D201E/D98Y/E187L/E204Q/E69M/E70A/K202T/N87E/Q94N/R155S/R180W/S121R/S35A/S48A/V306I/V36M/Y140S/Y91S)
PROCEDURE DETAILS: biochemical
Assay type: binding
RECORDED ENDPOINT: Normalized average relative binding affinity(ARB)

SEQUENCE CONTENT: XXXTXXXXX [3064.0077]
REPORTED: 0.39
//
SEQUENCE CONTENT: XXXLXXXXX [3064.0070]
REPORTED: 0.56
//
SEQUENCE CONTENT: XXXNXXXXX [3064.0072]
REPORTED: 0.46
//
SEQUENCE CONTENT: XXXXXXXPX [3064.0153]
REPORTED: 0.35
//
SEQUENCE CONTENT: XXXXXRXXX [3064.0115]
REPORTED: 0.13
//
SEQUENCE CONTENT: XXXXXXXTX [3064.0157]
REPORTED: 0.40
//
SEQUENCE CONTENT: XXXXXXCXX [3064.0122]
REPORTED: 0.78
//
SEQUENCE CONTENT: XXXGXXXXX [3064.0066]
REPORTED: 0.23
//
SEQUENCE CONTENT: XXXPXXXXX [3064.0073]
REPORTED: 0.22
//
SEQUENCE CONTENT: XXXXEXXXX [3064.0084]
REPORTED: 0.42
//
SEQUENCE CONTENT: XXXXXXDXX [3064.0123]
REPORTED: 0.10
//
SEQUENCE CONTENT: XXXHXXXXX [3064.0067]
REPORTED: 0.19
//
SEQUENCE CONTENT: XXXXXCXXX [3064.0102]
REPORTED: 0.40
//
SEQUENCE CONTENT: XXXXXXYXX [3064.0140]
REPORTED: 0.28
//
SEQUENCE CONTENT: XXXXTXXXX [3064.0097]
REPORTED: 0.62
//
SEQUENCE CONTENT: XXXXXPXXX [3064.0113]
REPORTED: 0.11
//
SEQUENCE CONTENT: XXXXYXXXX [3064.0100]
REPORTED: 0.95
//
SEQUENCE CONTENT: XXXXHXXXX [3064.0087]
REPORTED: 0.66
//
SEQUENCE CONTENT: XXXXDXXXX [3064.0083]
REPORTED: 0.17
//
SEQUENCE CONTENT: XXXXVXXXX [3064.0098]
REPORTED: 0.56
//
SEQUENCE CONTENT: XXXXXXXIX [3064.0148]
REPORTED: 0.18
//
SEQUENCE CONTENT: XXXXXSXXX [3064.0116]
REPORTED: 0.35
//
SEQUENCE CONTENT: XXXXXDXXX [3064.0103]
REPORTED: 0.18
//
SEQUENCE CONTENT: XXXXXXXSX [3064.0156]
REPORTED: 0.34
//
SEQUENCE CONTENT: XXXFXXXXX [3064.0065]
REPORTED: 0.42
//
SEQUENCE CONTENT: XXXXAXXXX [3064.0081]
REPORTED: 0.64
//
SEQUENCE CONTENT: XXXXQXXXX [3064.0094]
REPORTED: 1.0
//
SEQUENCE CONTENT: XXXXXXXLX [3064.0150]
REPORTED: 0.15
//
SEQUENCE CONTENT: XXXXXLXXX [3064.0110]
REPORTED: 0.12
//
SEQUENCE CONTENT: XXXXXEXXX [3064.0104]
REPORTED: 0.30
//
SEQUENCE CONTENT: XXXXIXXXX [3064.0088]
REPORTED: 0.32
//
SEQUENCE CONTENT: XXXXXXRXX [3064.0135]
REPORTED: 0.22
//
SEQUENCE CONTENT: XXXXGXXXX [3064.0086]
REPORTED: 0.77
//
SEQUENCE CONTENT: XXXXXXNXX [3064.0132]
REPORTED: 0.66
//
SEQUENCE CONTENT: XXXXXXXFX [3064.0145]
REPORTED: 0.32
//
SEQUENCE CONTENT: XXXXXXXYX [3064.0160]
REPORTED: 0.20
//
SEQUENCE CONTENT: XXXXXXTXX [3064.0137]
REPORTED: 0.49
//
SEQUENCE CONTENT: XXXXXWXXX [3064.0119]
REPORTED: 0.36
//
SEQUENCE CONTENT: XXXEXXXXX [3064.0064]
REPORTED: 0.27
//
SEQUENCE CONTENT: XXXXRXXXX [3064.0095]
REPORTED: 0.64
//
SEQUENCE CONTENT: XXXWXXXXX [3064.0079]
REPORTED: 0.39
//
SEQUENCE CONTENT: XXXXXXHXX [3064.0127]
REPORTED: 0.33
//
SEQUENCE CONTENT: XXXXLXXXX [3064.0090]
REPORTED: 0.69
//
SEQUENCE CONTENT: XXXXXNXXX [3064.0112]
REPORTED: 0.26
//
SEQUENCE CONTENT: XXXXXXAXX [3064.0121]
REPORTED: 0.69
//
SEQUENCE CONTENT: XXXXXXXVX [3064.0158]
REPORTED: 0.38
//
SEQUENCE CONTENT: XXXXXXLXX [3064.0130]
REPORTED: 1.0
//
SEQUENCE CONTENT: XXXXSXXXX [3064.0096]
REPORTED: 0.71
//
SEQUENCE CONTENT: XXXXXXIXX [3064.0128]
REPORTED: 0.40
//
SEQUENCE CONTENT: XXXXXIXXX [3064.0108]
REPORTED: 0.53
//
SEQUENCE CONTENT: XXXXXXXQX [3064.0154]
REPORTED: 0.17

* * *

TEST TARGET: HLA B*0801 (Homo sapiens, UniProt P01889, A93T/A95T/D138N/E176V/E187T/K202T/Q94N/R180D/S35A/V36M/Y33D/Y91F)
PROCEDURE DETAILS: biochemical
Where a SMILES comes first, the peptide text is derived from it.
Assign classes using reported IC50 values and the ranges class A (below 20 nM), class B (20 nM to below 30 nM), class C (30 nM or more), please.

COMPOUND: CC(C)C[C@H](NC(=O)[C@@H](N)Cc1ccc(O)cc1)C(=O)N[C@@H](CCCNC(=N)N)C(=O)N[C@H](C(=O)N[C@@H](CCCCN)C(=O)N1CCC[C@H]1C(=O)N[C@@H](C)C(=O)N[C@@H](CO)C(=O)N[C@@H](C)C(=O)O)[C@@H](C)O [3102.0686] (H-YLRTKPASA-OH)
CATEGORY LABEL: class A
//
COMPOUND: CSCC[C@H](NC(=O)[C@H](CC(N)=O)NC(=O)[C@@H](N)CCC(=O)O)C(=O)N[C@@H](CC(C)C)C(=O)N[C@@H](CCCNC(=N)N)C(=O)N[C@@H](CO)C(=O)N[C@@H](CCSC)C(=O)N1CCC[C@H]1C(=O)N[C@H](C(=O)O)C(C)C [3102.0748] (H-ENMLRSMPV-OH)
CATEGORY LABEL: class A
//
COMPOUND: CSCC[C@H](NC(=O)[C@H](CCC(N)=O)NC(=O)[C@@H](N)CO)C(=O)N[C@@H](CCC(=O)O)C(=O)N[C@@H](CCCNC(=N)N)C(=O)N[C@@H](Cc1ccccc1)C(=O)N[C@@H](CC(N)=O)C(=O)N[C@@H](CS)C(=O)N[C@@H](CO)C(=O)O [3102.0586] (H-SQMERFNCS-OH)
CATEGORY LABEL: class C
//
COMPOUND: CC[C@H](C)[C@H](N)C(=O)N[C@@H](CO)C(=O)N[C@@H](CCC(=O)O)C(=O)N[C@@H](CO)C(=O)N[C@@H](CCCNC(=N)N)C(=O)N[C@@H](Cc1ccccc1)C(=O)N[C@@H](CCC(N)=O)C(=O)N[C@@H](CO)C(=O)N[C@@H](CC(C)C)C(=O)O [3102.0767] (H-ISESRFQSL-OH)
CATEGORY LABEL: class C
//
COMPOUND: CSCC[C@H](NC(=O)[C@H](CCCNC(=N)N)NC(=O)[C@H](CCCCN)NC(=O)[C@H](CO)NC(=O)[C@H](CCCCN)NC(=O)[C@H](C)NC(=O)[C@@H](N)Cc1ccc(O)cc1)C(=O)N[C@@H](C)C(=O)N[C@@H](CCC(=O)O)C(=O)O [3102.0786] (H-YAKSKRMAE-OH)
CATEGORY LABEL: class C
//
COMPOUND: CC[C@H](C)[C@H](NC(=O)[C@H](CO)NC(=O)[C@H](C)NC(=O)[C@@H](NC(=O)[C@@H](NC(=O)[C@H](CC(N)=O)NC(=O)[C@H](CCCNC(=N)N)NC(=O)[C@@H](NC(=O)[C@@H](N)CCCNC(=N)N)C(C)C)[C@@H](C)CC)[C@@H](C)CC)C(=O)O [3102.0367] (H-RVRNIIASI-OH)
CATEGORY LABEL: class B
//
COMPOUND: CC(C)C[C@H](NC(=O)[C@H](CO)NC(=O)[C@@H]1CCCN1C(=O)[C@H](CCCNC(=N)N)NC(=O)[C@H](CCCCN)NC(=O)[C@H](CO)NC(=O)[C@H](CC(C)C)NC(=O)[C@H](CC(C)C)NC(=O)[C@@H](N)C(C)C)C(=O)O [3102.0634] (H-VLLSKRPSL-OH)
CATEGORY LABEL: class C
//
COMPOUND: CC[C@H](C)[C@H](NC(=O)[C@H](Cc1ccccc1)NC(=O)[C@H](Cc1ccccc1)NC(=O)[C@@H](N)CCSC)C(=O)N[C@@H](CCCNC(=N)N)C(=O)N[C@@H](Cc1ccccc1)C(=O)NCC(=O)N[C@@H](CCCCN)C(=O)N[C@@H](CCSC)C(=O)O [3102.0559] (H-MFFIRFGKM-OH)
CATEGORY LABEL: class C
//
COMPOUND: CC[C@H](C)[C@H](NC(=O)[C@H](CO)NC(=O)[C@H](CC(C)C)NC(=O)[C@H](CC(C)C)NC(=O)[C@H](CCCNC(=N)N)NC(=O)[C@H](CCSC)NC(=O)[C@H](CCC(=O)O)NC(=O)[C@H](C)NC(=O)[C@@H](N)CO)C(=O)O [3102.0547] (H-SAEMRLLSI-OH)
CATEGORY LABEL: class B
//
COMPOUND: CC[C@H](C)[C@H](NC(=O)[C@H](CCCCN)NC(=O)[C@@H](NC(=O)[C@H](CCCNC(=N)N)NC(=O)[C@H](CC(C)C)NC(=O)[C@@H](N)C(C)C)[C@@H](C)O)C(=O)N[C@H](C(=O)N[C@@H](CO)C(=O)N[C@@H](CC(C)C)C(=O)O)[C@@H](C)O [3102.0709] (H-VLRTKITSL-OH)
CATEGORY LABEL: class A
